Organism: Rattus norvegicus
Test: Open TG-GATES - Regimen: Daily Repeat
Assay type: toxicity, organism-based, Sprague-Dawley
Parameters: regimen Daily Repeat, gender Male, age 6 weeks
Conditions: in vivo, po, 100 mg/kg, 72 h, tissue Plasma, route gavage, dose level Low, time 3 day
RECORDED_ENDPOINT: K

For each listed entry, give its K.
1. CC(C)(S)[C@@H](N)C(=O)O [PENICILLAMINE]
2. O=C(N[C@H](CO)[C@H](O)c1ccc([N+](=O)[O-])cc1)C(Cl)Cl [CHLORAMPHENICOL]
3. CCN1CCCC1CNC(=O)c1cc(S(N)(=O)=O)ccc1OC (centres undefined) [SULPIRIDE]
4. O=C(O)c1cccnc1 [NIACIN]

a:
4.1 meq/L
4.3 meq/L
4.2 meq/L
3.9 meq/L

// provenance: ChEMBL document CHEMBL3885861
